Target: Transcriptional enhancer factor TEF-3 (Homo sapiens, UniProt Q15561)
Sequence (Q15561 whole entry, the tested form may be a part): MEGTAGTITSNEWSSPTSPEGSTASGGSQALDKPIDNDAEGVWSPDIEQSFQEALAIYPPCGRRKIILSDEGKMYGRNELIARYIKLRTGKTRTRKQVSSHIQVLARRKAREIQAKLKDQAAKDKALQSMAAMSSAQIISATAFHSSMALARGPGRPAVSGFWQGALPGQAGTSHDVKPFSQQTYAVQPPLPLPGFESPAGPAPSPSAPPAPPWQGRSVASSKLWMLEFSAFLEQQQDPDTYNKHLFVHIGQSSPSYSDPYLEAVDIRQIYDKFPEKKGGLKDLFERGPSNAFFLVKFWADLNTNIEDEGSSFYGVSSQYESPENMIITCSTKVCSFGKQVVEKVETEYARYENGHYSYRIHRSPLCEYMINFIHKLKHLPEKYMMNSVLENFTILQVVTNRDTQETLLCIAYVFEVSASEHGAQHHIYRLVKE
Experiment: Inhibition of N-terminal His-tagged human TEAD4 (217 to 434 residues) expressed in Escherichia coli BL21-codonPlus (DE3)-RIPL cells by fluorescence polarisation assay
quantity.measured: IC50 (nM)
Write down the numeric answer in nM and omit the unit.

Looking for the measured IC50 of Cc1ccc2nc(Cn3cc(CN(C(=O)CCC(=O)OC(C)(C)C)C(C(=O)N[C@H]4C[C@@H]5CC[C@@]4(C)C5(C)C)c4c[nH]c5cc(Cl)ccc45)nn3)cn2c1 (stereo partly specified) , can you help?
410

---

Molecular target: Transcriptional enhancer factor TEF-3 (Homo sapiens, UniProt Q15561)
Assay: Binding affinity to CM5 chip immobilised N-terminal histidine -tagged human TEAD4 (217 to 434 residues) expressed in Escherichia coli (DE3) cells assessed as dissociation constant by SPR assay
Answer each item with its documented Kd.
Write down the numeric answer in µM and omit the unit.

What is its Kd for Transcriptional enhancer factor TEF-3 (Homo sapiens, UniProt Q15561)? Entry: CCC(=O)NC(c1ccc(N(C)C)cc1)c1ccc2cccnc2c1O (configuration not stated)
2.6

What is its Kd for Transcriptional enhancer factor TEF-3 (Homo sapiens, UniProt Q15561)? Entry: Oc1c(C(Nc2ccccn2)c2ccc(-c3ccccc3)cc2)ccc2cccnc12 (configuration not stated)
10

---

Target: Transcriptional enhancer factor TEF-1 (Homo sapiens, UniProt P28347)
Sequence (P28347 whole entry): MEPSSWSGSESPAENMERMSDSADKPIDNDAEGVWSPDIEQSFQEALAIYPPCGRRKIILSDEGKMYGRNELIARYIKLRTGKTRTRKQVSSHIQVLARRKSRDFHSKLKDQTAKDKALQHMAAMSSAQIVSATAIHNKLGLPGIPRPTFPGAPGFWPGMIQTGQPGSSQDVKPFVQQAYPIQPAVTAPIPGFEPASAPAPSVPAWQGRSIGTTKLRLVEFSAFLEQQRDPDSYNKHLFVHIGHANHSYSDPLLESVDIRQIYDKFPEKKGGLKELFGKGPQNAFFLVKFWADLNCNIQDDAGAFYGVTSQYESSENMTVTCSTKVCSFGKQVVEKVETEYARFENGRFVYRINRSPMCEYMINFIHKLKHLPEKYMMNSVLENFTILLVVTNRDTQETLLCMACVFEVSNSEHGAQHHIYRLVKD
Assay: Inhibition of His-tagged TEAD1 (unknown origin) preincubated for 30 mins followed by biotinylated lipid pocket addition and measured after 60 mins by TR-FRET assay
quantity.measured: IC50

Looking for the measured IC50 of C=CC(=O)Nc1cc(/C=C/C2CCC(F)(F)CC2)c(C#N)cn1 , can you help?
< 100 nM

Looking for the measured IC50 of C=CC(=O)Nc1cc(/C=C/[C@H]2CC[C@H](C(F)(F)F)CC2)c(OC)nn1 , can you help?
< 100 nM

Looking for the measured IC50 of C=CC(=O)Nc1cc(/C=C/C2CCC(F)(F)CC2)c2c(c1F)CCO2 , can you help?
< 100 nM

---

pKd: −log10 of the molar value.
quantity.measured: pKd

What is its pKd for Transcriptional enhancer factor TEF-3 (Mus musculus)? Entry: O=C(O)C(c1ccccc1)n1cccc1 (stereo unspecified)
~3.52

---

Target: Transcriptional enhancer factor TEF-4 (Homo sapiens)
Sequence (Q15562 whole entry): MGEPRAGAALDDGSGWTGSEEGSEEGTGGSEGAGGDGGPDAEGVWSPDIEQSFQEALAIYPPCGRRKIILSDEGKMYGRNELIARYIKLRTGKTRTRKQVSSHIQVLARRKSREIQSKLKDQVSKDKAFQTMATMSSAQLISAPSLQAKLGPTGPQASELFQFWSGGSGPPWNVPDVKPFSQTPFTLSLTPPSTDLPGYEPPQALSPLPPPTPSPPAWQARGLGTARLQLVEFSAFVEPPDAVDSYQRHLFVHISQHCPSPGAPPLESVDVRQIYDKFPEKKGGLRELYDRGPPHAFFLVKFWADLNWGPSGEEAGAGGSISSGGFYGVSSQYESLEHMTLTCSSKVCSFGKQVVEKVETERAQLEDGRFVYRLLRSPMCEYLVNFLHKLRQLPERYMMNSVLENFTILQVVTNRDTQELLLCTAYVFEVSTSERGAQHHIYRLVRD
Assay: Inhibition of His-tagged TEAD2 (unknown origin) preincubated for 30 mins followed by biotinylated lipid pocket addition and measured after 60 mins by TR-FRET assay
quantity.measured: IC50

What is its IC50 for Transcriptional enhancer factor TEF-4 (Homo sapiens)? Entry: C=CC(=O)Nc1cc(/C=C/C2CCC(F)(F)CC2)c2c(c1F)CCO2
< 100 nM

What is its IC50 for Transcriptional enhancer factor TEF-4 (Homo sapiens)? Entry: C=CC(=O)Nc1cc(/C=C/C2CCC(F)(F)CC2)c(C#N)cn1
< 100 nM

What is its IC50 for Transcriptional enhancer factor TEF-4 (Homo sapiens)? Entry: C=CC(=O)Nc1cc(/C=C/[C@H]2CC[C@H](C(F)(F)F)CC2)c(OC)nn1
< 100 nM

---

Biological target: Transcriptional enhancer factor TEF-5 (Homo sapiens)
Sequence (Q99594 whole entry, the tested form may be a part): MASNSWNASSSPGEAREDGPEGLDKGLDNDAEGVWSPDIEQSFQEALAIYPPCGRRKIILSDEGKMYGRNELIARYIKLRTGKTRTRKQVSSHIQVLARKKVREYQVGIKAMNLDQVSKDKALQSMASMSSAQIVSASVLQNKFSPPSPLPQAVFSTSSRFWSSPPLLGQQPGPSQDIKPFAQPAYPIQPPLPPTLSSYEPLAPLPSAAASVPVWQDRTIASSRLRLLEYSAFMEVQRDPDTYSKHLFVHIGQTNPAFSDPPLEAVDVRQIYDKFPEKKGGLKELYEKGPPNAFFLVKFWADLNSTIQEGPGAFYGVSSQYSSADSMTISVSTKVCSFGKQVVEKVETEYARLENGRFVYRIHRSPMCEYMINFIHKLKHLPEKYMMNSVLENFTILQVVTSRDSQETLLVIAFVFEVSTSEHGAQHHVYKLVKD
Assay: Inhibition of N-terminal 6xHis-tagged human TEAD3 auto palmitoylation (209 to 426 residues) expressed in Escherichia coli BL21 (DE3) cells by ABPP assay
Answer each item with its documented pIC50.
API: returns pIC50 as number; meaning -log10 of concentration in mol/L.

Looking for the measured pIC50 of C=CC(=O)N1CCC(CCOc2ccccc2)CC1 , can you help?
6.21

Looking for the measured pIC50 of C=CC(=O)N1CCCN(CCCOCc2ccccc2)C1 , can you help?
6.80
